Form field: kon (one value per entry).
- Subject Of Test: T1, recombinant endoglin (BIAcore analyte, Example 2) (UniProt P17813 26-586, limits assumed)
- T1 sequence (looked up): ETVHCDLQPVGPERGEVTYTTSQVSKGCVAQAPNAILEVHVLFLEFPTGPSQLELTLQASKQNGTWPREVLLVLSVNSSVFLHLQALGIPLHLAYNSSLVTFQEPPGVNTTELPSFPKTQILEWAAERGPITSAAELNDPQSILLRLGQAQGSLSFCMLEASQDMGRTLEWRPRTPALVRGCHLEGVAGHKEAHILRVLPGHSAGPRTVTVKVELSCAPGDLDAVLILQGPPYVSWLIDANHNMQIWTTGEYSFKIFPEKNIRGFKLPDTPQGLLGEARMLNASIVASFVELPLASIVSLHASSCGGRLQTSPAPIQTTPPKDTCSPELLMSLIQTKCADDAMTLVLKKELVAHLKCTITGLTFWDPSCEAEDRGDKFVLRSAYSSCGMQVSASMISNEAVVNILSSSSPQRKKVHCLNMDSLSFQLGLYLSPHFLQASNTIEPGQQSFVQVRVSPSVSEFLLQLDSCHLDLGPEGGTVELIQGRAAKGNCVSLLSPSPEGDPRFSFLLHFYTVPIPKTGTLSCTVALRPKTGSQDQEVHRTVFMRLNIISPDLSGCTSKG
- Experiment Notes: SPR (BIAcore), antibody captured on protein A, recombinant endoglin as analyte
// note: answer is a bare numeric in M⁻¹ s⁻¹

Worked examples, 3 binders total:
>  <Binder>
humanized/deimmunized anti-endoglin antibody VK1AAVH1A2 (antibody, V domains shown, It has the same variable domains as TRC205, which is IgG4) VH: EVQLVESGGGLVKPGGSLRLSCAASGFTFSDAWMDWVRQAPGKGLEWVGEARSKASNHATYYAESVKGRFTISRDDSKNTLYLQMNSLKTEDTAVYYCTRWRRFFDSWGQGTLVTVSS VL: DIQMTQSPSSLSASVGDRATITCRASSSVSYMHWYQQKPGKAPKPWAYATSNLASGVPSRFSGSGSGTDYTLTISSLQPEDFATYYCQQWSSNPLTFGGGTKVEIK

>  <Unit Descriptor>
M⁻¹ s⁻¹

>  <Measured Result>
46000

$$$$
>  <Binder>
chimeric anti-endoglin antibody (TRC105) (antibody, V domains shown, also called chimeric anti-CD105; c-SN6j) VH: EVKLEESGGGLVQPGGSMKLSCAASGFTFSDAWMDWVRQSPEKGLEWVAEIRSKASNHATYYAESVKGRFTISRDDSKSSVYLQMNSLRAEDTGIYYCTRWRRFFDSWGQGTTLTVSS VL: QIVLSQSPAILSASPGEKVTMTCRASSSVSYMHWYQQKPGSSPKPWIYATSNLASGVPVRFSGSGSGTSYSLTISRVEAEDAATYYCQQWSSNPLTFGAGTKLELK

>  <Unit Descriptor>
M⁻¹ s⁻¹

>  <Measured Result>
54700

$$$$
>  <Binder>
humanized/deimmunized anti-endoglin antibody VK1AAVH1R (antibody, human IgG1, V domains shown) VH: EVQLVESGGGLVKPGGSLRLSCAASGFTFSDAWMDWVRQAPGKGLEWVGEIRSRASNHATYYAESVKGRFTISRDDSKNTLYLQMNSLKTEDTAVYYCTRWRRFFDSWGQGTLVTVSS VL: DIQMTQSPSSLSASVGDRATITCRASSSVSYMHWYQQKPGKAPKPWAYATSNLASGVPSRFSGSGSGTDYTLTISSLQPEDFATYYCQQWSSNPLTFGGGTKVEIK

>  <Unit Descriptor>
M⁻¹ s⁻¹

>  <Measured Result>
64000

$$$$

As a next step, examine the binder that follows.
Using the record for humanized/deimmunized anti-endoglin antibody VK1AAVH1Q (antibody, human IgG1, V domains shown) VH: EVQLVESGGGLVKPGGSLRLSCAASGFTFSDAWMDWVRQAPGKGLEWVGEIRSQASNHATYYAESVKGRFTISRDDSKNTLYLQMNSLKTEDTAVYYCTRWRRFFDSWGQGTLVTVSS VL: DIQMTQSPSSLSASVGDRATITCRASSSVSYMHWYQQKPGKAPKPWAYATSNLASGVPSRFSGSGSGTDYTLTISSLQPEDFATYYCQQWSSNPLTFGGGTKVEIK , state its measured kon.
35600
